B1: library; a variant is named by its letters at N, in order (parent)
chain: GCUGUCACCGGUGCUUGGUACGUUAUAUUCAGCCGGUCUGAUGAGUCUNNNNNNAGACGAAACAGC

variants of: B1; assay: normalized RNA/DNA level without ligand (relative to sTRSVctl = 100) (log10 (% of sTRSVctl)); HEK293T overexpressing SLC46A1; higher = less ribozyme self-cleavage, higher mRNA level; settings: without (6R,S)-folinic acid; ligand present: no
Examples of variants with documented normalized RNA/DNA level without ligand (log10) follow.

Example variants with recorded normalized RNA/DNA level without ligand (log10):
Variant Identifier: GAUGAU
Recorded Measurement: 1.94
--
Variant Identifier: CCGUAC
Recorded Measurement: 1.99
--
Variant Identifier: GAUAGU
Recorded Measurement: 1.96
--
Variant Identifier: GGUCUG
Recorded Measurement: 2.08
--
Variant Identifier: UUGGGU
Recorded Measurement: 1.94
--
Variant Identifier: GAUCGU
Recorded Measurement: 2.02
--
Variant Identifier: AAAGCC
Recorded Measurement: 2.03
--
Variant Identifier: UCGUUU
Recorded Measurement: 1.99
--
Variant Identifier: UUUGGA
Recorded Measurement: 1.9
--
Variant Identifier: AGGCAC
Recorded Measurement: 2.04

Next:
INPUT: Need normalized RNA/DNA level without ligand (log10) of "GCCUAC" , thanks.
OUTPUT: 2.06
